Where these numbers come from: the supplement of paper PMC10065799

Target: Fyn (UniProt P06241)
Sequence (P06241 whole entry, looked up): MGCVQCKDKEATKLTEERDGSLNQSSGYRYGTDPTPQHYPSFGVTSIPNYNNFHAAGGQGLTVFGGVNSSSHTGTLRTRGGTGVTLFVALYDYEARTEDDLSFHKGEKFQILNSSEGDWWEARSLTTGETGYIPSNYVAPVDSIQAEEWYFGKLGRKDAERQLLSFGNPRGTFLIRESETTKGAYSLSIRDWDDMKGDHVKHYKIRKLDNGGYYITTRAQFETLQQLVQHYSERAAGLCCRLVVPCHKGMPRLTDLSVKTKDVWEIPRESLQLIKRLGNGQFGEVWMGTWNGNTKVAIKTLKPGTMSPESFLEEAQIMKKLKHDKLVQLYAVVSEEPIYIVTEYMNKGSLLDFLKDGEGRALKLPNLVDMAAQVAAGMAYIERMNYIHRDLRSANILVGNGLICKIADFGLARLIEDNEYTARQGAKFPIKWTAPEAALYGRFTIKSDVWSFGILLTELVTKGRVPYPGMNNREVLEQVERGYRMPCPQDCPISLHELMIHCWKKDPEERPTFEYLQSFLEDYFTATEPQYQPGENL
Assay: phosphorylation enrichment, bacterial display (enrichment ratio); higher = better substrate or ligand; peptides without Tyr show the background
Mark NOT MET for phosphorylation enrichment values under 0.5, and MET for everything at or above.

In plain terms: is recorded phosphorylation enrichment at least 0.5 for AIGCEYSEINI [SIGLEC12_Y588_Y586C] ?
MET

In plain terms: is recorded phosphorylation enrichment at least 0.5 for HSVLQYVGGVM [FGGY_Y136] ?
MET

In plain terms: is recorded phosphorylation enrichment at least 0.5 for DNEAIYDICRC [TUBA4A_Y210_R215C] ?
MET

In plain terms: is recorded phosphorylation enrichment at least 0.5 for DRSSLYLVAGP [KIAA1614_Y1083_N1078D] ?
MET

In plain terms: is recorded phosphorylation enrichment at least 0.5 for ISRLKYPVSQQ [BTK_Y375] ?
NOT MET

In plain terms: is recorded phosphorylation enrichment at least 0.5 for DDPRTYQKYGY [OAS1_Y362_R361T] ?
NOT MET

In plain terms: is recorded phosphorylation enrichment at least 0.5 for RFLERYIFNPE [HLA-DPB1_Y57_R61P_YF] ?
MET

###

Task for the reader: assign each of the following sequences its reported phosphorylation enrichment.
Biological target: MERTK (UniProt Q12866)
Sequence (Q12866 whole entry, looked up): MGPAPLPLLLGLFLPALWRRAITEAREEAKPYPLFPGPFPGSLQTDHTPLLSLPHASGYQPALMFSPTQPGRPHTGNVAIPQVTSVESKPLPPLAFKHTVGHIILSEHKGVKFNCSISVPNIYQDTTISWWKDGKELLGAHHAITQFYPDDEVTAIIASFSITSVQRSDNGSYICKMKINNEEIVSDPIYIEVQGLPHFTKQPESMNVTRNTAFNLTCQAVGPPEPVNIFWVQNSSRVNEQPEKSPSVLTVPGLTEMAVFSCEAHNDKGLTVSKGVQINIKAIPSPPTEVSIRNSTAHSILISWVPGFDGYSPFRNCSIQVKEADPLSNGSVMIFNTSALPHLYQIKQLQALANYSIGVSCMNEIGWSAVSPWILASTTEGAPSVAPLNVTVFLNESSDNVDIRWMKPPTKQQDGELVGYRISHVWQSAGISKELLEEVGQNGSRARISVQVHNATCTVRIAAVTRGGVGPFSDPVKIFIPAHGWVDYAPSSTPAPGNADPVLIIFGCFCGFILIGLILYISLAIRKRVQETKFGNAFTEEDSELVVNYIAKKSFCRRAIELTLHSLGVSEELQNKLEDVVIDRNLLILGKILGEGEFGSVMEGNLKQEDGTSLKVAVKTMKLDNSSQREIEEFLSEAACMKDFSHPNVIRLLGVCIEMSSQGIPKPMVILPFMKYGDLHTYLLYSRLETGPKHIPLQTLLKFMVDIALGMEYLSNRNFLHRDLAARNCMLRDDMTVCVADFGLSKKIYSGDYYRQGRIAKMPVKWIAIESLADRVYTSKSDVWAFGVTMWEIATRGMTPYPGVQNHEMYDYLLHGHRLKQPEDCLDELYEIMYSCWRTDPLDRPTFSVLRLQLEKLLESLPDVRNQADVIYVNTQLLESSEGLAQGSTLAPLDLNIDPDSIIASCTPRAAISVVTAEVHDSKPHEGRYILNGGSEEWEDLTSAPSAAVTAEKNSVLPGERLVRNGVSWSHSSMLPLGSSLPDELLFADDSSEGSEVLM
Experiment: phosphorylation enrichment, bacterial display (enrichment ratio); higher = better substrate or ligand; peptides without Tyr show the background
Reply with the value as a number alone.

Provide phosphorylation enrichment, system MERTK (UniProt Q12866), entry TLQVMYGCDVG [HLA-B_Y123_S121V]
0.56

Provide phosphorylation enrichment, system MERTK (UniProt Q12866), entry `IPQEEYTATGL`
0.378

Provide phosphorylation enrichment, system MERTK (UniProt Q12866), entry EAVSIYQFYGQ [CBLC_Y402_H405Y]
9.05

###

Task for the reader: assign each of the following sequences its reported phosphorylation enrichment.
Molecular target: EPHB1 (UniProt P54762)
Sequence (P54762 whole entry, looked up): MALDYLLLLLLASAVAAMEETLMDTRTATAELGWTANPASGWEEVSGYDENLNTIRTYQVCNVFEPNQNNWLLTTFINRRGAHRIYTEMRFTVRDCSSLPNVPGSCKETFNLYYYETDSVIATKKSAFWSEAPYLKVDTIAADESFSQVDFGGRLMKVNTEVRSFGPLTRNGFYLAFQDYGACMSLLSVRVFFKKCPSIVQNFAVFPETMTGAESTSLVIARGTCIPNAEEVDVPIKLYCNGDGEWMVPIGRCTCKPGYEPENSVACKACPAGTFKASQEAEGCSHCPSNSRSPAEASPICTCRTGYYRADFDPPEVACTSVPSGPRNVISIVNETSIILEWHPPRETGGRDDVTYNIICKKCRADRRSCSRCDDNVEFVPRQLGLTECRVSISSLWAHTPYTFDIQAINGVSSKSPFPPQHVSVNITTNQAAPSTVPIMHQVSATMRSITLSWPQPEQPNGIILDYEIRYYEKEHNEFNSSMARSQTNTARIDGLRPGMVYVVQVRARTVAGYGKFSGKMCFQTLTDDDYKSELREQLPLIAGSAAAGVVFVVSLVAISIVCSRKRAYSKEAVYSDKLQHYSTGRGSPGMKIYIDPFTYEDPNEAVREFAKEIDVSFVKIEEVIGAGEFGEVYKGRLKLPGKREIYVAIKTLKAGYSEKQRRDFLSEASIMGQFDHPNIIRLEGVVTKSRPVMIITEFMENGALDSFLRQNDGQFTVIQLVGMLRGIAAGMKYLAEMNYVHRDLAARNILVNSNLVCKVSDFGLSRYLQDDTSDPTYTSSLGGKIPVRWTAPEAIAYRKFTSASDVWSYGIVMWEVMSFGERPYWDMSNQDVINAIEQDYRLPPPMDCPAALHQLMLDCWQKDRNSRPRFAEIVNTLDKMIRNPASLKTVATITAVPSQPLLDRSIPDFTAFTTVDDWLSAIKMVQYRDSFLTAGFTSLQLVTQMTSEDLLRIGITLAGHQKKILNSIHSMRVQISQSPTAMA
Test: phosphorylation enrichment, bacterial display (enrichment ratio); higher = better substrate or ligand; peptides without Tyr show the background
Reply with the value as a number alone.

Provide phosphorylation enrichment, system EPHB1 (UniProt P54762), entry PTYEHYANSTQ [SLC12A3_Y70]
1.2

Provide phosphorylation enrichment, system EPHB1 (UniProt P54762), entry LENSTYQFIRV [CRB1_Y760_YF]
5.79

Provide phosphorylation enrichment, system EPHB1 (UniProt P54762), entry FIIFIYAMKKK [SLCO1B1_Y645_L643F_YF]
0.709

Provide phosphorylation enrichment, system EPHB1 (UniProt P54762), entry CLRIDYERVSQ [DSP_Y1542_R1537C]
1.48

Provide phosphorylation enrichment, system EPHB1 (UniProt P54762), entry MKSIKYMDKEV [CCDC60_Y41_I46V]
0.325

Provide phosphorylation enrichment, system EPHB1 (UniProt P54762), entry TFLRTYTDAMQ [TSPAN7_Y124]
0.51

Provide phosphorylation enrichment, system EPHB1 (UniProt P54762), entry FYRNVYHLASV [RBL1_Y796_K794N]
0.611

Provide phosphorylation enrichment, system EPHB1 (UniProt P54762), entry GRTGHYLCNAC [GATA1_Y223_D218G]
0.4

Provide phosphorylation enrichment, system EPHB1 (UniProt P54762), entry RPGSGYTNIMQ [PKLR_Y564_R569Q]
0.61

Provide phosphorylation enrichment, system EPHB1 (UniProt P54762), entry TVSRPYSFIEF [SEC22B_Y110]
0.527

Provide phosphorylation enrichment, system EPHB1 (UniProt P54762), entry THLAPYSDELR [APOA1_Y190]
0.51

Provide phosphorylation enrichment, system EPHB1 (UniProt P54762), entry TSNQEYLDVSM [FGFR1_Y766_L769V]
0.866

Provide phosphorylation enrichment, system EPHB1 (UniProt P54762), entry SFLSFYTSHVQ [NEFL_Y443_P440L_YF]
0.758

Provide phosphorylation enrichment, system EPHB1 (UniProt P54762), entry ISRASYYRKGG [ALK_Y1282_Y1278S]
0.427

Provide phosphorylation enrichment, system EPHB1 (UniProt P54762), entry ILGRTHFVNHE [NEDD4_Y627_Y627H_YF]
0.471

Provide phosphorylation enrichment, system EPHB1 (UniProt P54762), entry SGAWSYNTSTE [SELE_Y24]
0.458

Provide phosphorylation enrichment, system EPHB1 (UniProt P54762), entry LDTFIYDAAVL [GRIN2A_Y730_A727T]
1.68

Provide phosphorylation enrichment, system EPHB1 (UniProt P54762), entry HDHYGYRQSVT [CD55_Y245_R240H]
0.4

Provide phosphorylation enrichment, system EPHB1 (UniProt P54762), entry GDYLSYREFHL [ERBIN_Y1107_S1112L]
16.4

Provide phosphorylation enrichment, system EPHB1 (UniProt P54762), entry TFGVVYKARNK [CDK2_Y19_YF]
0.439

###

Target: c-Src SH2;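 also: peptide library displayed on the E. coli surface as eCPX fusions, selected cells deep-sequenced, score is each peptide's frequency after selection divided by its frequency in the input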
Test: SH2 binding enrichment of the phosphorylated peptide, bacterial display (enrichment ratio); higher = better substrate or ligand; peptides without Tyr show the background
Mark label 0 for SH2 binding enrichment values under 0.6, and label 1 for everything at or above.

In plain terms: is recorded SH2 binding enrichment at least 0.6 for KLPDAYERLIL [G6PD_Y437] ?
label 1

In plain terms: is recorded SH2 binding enrichment at least 0.6 for LGRGKYSEVFE [CSNK2A1_Y50] ?
label 1

In plain terms: is recorded SH2 binding enrichment at least 0.6 for TYEPNYGTVKQ [RAPGEF6_Y1447] ?
label 0

In plain terms: is recorded SH2 binding enrichment at least 0.6 for GIFKDYFRFNF [PLA2G2D_Y85_S80G_YF] ?
label 1

In plain terms: is recorded SH2 binding enrichment at least 0.6 for SWKRRYFLLWA [APBB1IP_Y331_R335W] ?
label 0

In plain terms: is recorded SH2 binding enrichment at least 0.6 for MECLPYGSLRD [JAK2_Y934_Y931C] ?
label 0

###

Target: FGFR3 (UniProt P22607)
Sequence (P22607 whole entry, looked up): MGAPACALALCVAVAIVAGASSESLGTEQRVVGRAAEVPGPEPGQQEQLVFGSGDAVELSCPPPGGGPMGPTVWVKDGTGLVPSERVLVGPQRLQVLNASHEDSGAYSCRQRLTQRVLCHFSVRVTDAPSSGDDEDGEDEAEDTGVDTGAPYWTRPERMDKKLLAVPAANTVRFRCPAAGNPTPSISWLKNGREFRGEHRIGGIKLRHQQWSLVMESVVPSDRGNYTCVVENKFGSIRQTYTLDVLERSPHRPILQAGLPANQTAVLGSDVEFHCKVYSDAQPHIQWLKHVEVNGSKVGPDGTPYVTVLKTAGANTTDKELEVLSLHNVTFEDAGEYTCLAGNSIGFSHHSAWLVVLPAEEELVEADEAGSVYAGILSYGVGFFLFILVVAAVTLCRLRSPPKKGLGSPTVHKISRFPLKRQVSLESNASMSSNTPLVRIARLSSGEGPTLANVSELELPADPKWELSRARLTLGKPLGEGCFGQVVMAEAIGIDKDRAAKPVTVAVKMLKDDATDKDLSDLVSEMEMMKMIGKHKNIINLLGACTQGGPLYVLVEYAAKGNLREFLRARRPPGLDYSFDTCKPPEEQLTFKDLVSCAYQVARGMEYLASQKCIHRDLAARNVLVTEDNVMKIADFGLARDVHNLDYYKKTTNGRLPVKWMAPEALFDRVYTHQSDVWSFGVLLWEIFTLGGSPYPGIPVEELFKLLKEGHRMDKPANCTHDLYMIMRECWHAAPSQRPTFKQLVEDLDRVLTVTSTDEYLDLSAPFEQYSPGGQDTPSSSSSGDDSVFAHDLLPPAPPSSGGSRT
Test: phosphorylation enrichment, bacterial display (enrichment ratio); higher = better substrate or ligand; peptides without Tyr show the background
measured_parameter: phosphorylation enrichment
Reply with the value as a number alone.

Answer with reported phosphorylation enrichment of YGEYRYRSVIK [CFTR_Y517_D513G]
0.644

Answer with reported phosphorylation enrichment of PADCRYFTFPQ [GAMT_Y222_A224T_YF]
1.09

Answer with reported phosphorylation enrichment of KSLFHHRQYSA [CPS1_Y1491_Y1491H]
0.412

Answer with reported phosphorylation enrichment of LPSKDYAEVRR [HP_Y272_G276R]
0.865

Answer with reported phosphorylation enrichment of ESMLRYDVYGG [STOX1_Y607_E608D]
0.705

Answer with reported phosphorylation enrichment of PRPACYPSTVS [CACNA1C_Y1832_G1831C]
0.598

Answer with reported phosphorylation enrichment of KKYFSYAWPFY [BRDT_Y291_H288Y]
0.621

Answer with reported phosphorylation enrichment of MECLPYGSLRD [JAK2_Y934_Y931C]
0.794

Answer with reported phosphorylation enrichment of NGQALYAACQT [XDH_Y1092_V1091L]
0.562

Answer with reported phosphorylation enrichment of SGAWSYNTSTE [SELE_Y24]
0.621

Answer with reported phosphorylation enrichment of FDDGKYVFVVT [RPS6KA3_Y488_YF]
0.911

Answer with reported phosphorylation enrichment of RAILLYEFVGK [NATD1_Y45_V42I_YF]
5.57

Answer with reported phosphorylation enrichment of GLAELYEFKKK [CKAP5_Y1854_YF]
0.48

Answer with reported phosphorylation enrichment of RLQEDYDHSFF [ESD_Y258_G257D_YF]
1.2

Answer with reported phosphorylation enrichment of GNLQEYLTRHV [TGFBR2_Y336]
0.584

Answer with reported phosphorylation enrichment of LQRVQCDLQKA [DSP_Y1512_Y1512C]
1.31

Answer with reported phosphorylation enrichment of PLDGEYFTLRI [TP53_Y327_Q331R]
5

Answer with reported phosphorylation enrichment of RRIFSYRGHLW [VHL_Y112_H110Y_YF]
0.619

Answer with reported phosphorylation enrichment of VEFAKYGSLQG [RET_Y809_R813Q_YF]
0.578

Answer with reported phosphorylation enrichment of FADIAYNYRQG [PAH_Y166_H170Q]
0.728

Answer with reported phosphorylation enrichment of DPHKIFEFVNS [IRF3_Y107_Y107F]
0.596

Answer with reported phosphorylation enrichment of INNIDYFKNTT [FGFR2_Y656_K659N_YF]
0.474

Answer with reported phosphorylation enrichment of EYDRLYEEYTR [PIK3R1_Y467]
0.889

Answer with reported phosphorylation enrichment of PFTDPYFDFEI [ZC3H18_Y371_A368T_YF]
12.4

Answer with reported phosphorylation enrichment of VKANTYEKFWP [GATM_Y100_YF]
0.487

Answer with reported phosphorylation enrichment of ATKNDYWAMLA [WWOX_Y287_P282A]
3.97

Answer with reported phosphorylation enrichment of DRLANYLEKVR [KRT40_Y103_S102N]
0.64

Answer with reported phosphorylation enrichment of SHNKYYMLVAH [MFSD8_Y134_R139H]
4.22

Answer with reported phosphorylation enrichment of CTTIHYDYMCN [TP53_Y234_N235D]
0.631

Answer with reported phosphorylation enrichment of LENSTYQFIRV [CRB1_Y760_YF]
3.21

Answer with reported phosphorylation enrichment of KEAVLYPHLPP [SQSTM1_Y383_A381V]
0.646

Answer with reported phosphorylation enrichment of VPVDGYISGLL [PAK6_Y81_M76V]
0.656

Answer with reported phosphorylation enrichment of LESILYESSVV [TRPV4_Y91_T89I]
0.825

Answer with reported phosphorylation enrichment of PKGTGCIKTEL [STAT1_Y701_Y701C]
0.759

Answer with reported phosphorylation enrichment of AAETTYDKILK [GDNF_Y156]
0.725

Answer with reported phosphorylation enrichment of ADRNHYRRYRR [YBX1_Y145_P149R]
0.572

Answer with reported phosphorylation enrichment of EIHTQYEAMAS [GFAP_Y242_R239H]
0.491

Answer with reported phosphorylation enrichment of INSLKYAFNVS [EIF2B5_Y583_I587V_YF]
0.584

Answer with reported phosphorylation enrichment of ALDRPYTSKHS [NANS_Y71_E68D]
0.566

Answer with reported phosphorylation enrichment of ALLTKYSHSSM [DSCC1_Y374]
0.587

Answer with reported phosphorylation enrichment of ITGNGYYFRVF [MYBPC3_Y1135_I1131T]
0.72
